Every entry's value here was drawn from patent US12528864.

Target: T1, human CD96v2 expressed on cells (CHO cells; transiently transfected HEK cells) (human, UniProt P40200-2 22-569)
T1 construct: whole, on cells; the cell is named under assay; also called CHO-huCD96; hCD96v2
T1 sequence (looked up): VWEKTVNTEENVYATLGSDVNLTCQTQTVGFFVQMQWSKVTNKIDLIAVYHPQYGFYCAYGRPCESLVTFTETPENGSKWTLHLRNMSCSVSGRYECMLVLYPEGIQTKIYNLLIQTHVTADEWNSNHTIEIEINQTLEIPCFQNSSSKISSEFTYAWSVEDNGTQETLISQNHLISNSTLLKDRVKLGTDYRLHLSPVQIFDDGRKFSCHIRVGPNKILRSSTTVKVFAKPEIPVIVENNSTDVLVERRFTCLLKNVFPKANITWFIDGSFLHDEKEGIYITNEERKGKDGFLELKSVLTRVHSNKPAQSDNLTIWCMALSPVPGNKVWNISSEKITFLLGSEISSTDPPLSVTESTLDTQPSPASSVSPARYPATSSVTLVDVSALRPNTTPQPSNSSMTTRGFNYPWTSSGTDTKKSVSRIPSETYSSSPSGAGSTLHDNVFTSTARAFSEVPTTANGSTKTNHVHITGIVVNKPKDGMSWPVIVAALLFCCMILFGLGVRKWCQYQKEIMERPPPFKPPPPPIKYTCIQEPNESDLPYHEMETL
Assay: flow cytometry on CHO cells expressing human CD96v2
pEC50: −log10 of the molar value.

{"BINDER": "42Y073-2B04-46 (antibody, V domains shown, Fully human antibody; also called 42Y073-2804-46) VH: QVQLQQWGAGLLKPSETLSLTCAVYGGSFRRYYWSWIRQPPGKGLEWIGEIDGWGSTNYNPSLKSRVTISVDTSKNQFSLKLSSVTAADTAVYYCARGGSVDFWSGSDYYYYMDVWGKGATVTVSS VL: EIVLTQSPATLSLSPGERATLSCRASQSVSSYLAWYQQKPGQAPRLLIYDASKRATGIPARFSGSGSGTDFTLTISSLEPEDFAVYYCQQLDNWPITFGGGTKVEIK", "pEC50": 8.97}
{"BINDER": "42Y073-1A01-126 (antibody, V domains shown, Fully human antibody) VH: QVQLVQSGAEVKKPGASVKVSCKASGYTFTRYNMHWVRQAPGQGLEWMGWINPAGGSTSYAQKFQGRVTMTRDTSTSTVYMELSSLRSEDTAVYYCARETAYYTTKGNWFDPWGQGTLVTVSA VL: DIQMTQSPSSLSASVGDRVTITCRASQSISSYLNWYQQKPGKAPKLLIYAASSLQSGVPSRFSGSGSGTDFTLTISSLQPEDFATYYCQQSLYPPRTFGGGTKVEIK", "pEC50": 10.70}
{"BINDER": "42Y073-86F04-88 (antibody, V domains shown, Fully human antibody) VH: QVQLVQSGAEVKKPGSSVKVSCKASGGTFSSSAISWVRQAPGQGLEWMGGIIPIFGRANYAQKFQGRVTITADESTSTAYMELSSLRSEDTAVYYCARLLGESGMDVWGQGTTVTVSS VL: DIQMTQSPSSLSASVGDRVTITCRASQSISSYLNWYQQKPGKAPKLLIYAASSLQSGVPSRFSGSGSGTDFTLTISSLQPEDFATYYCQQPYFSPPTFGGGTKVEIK", "pEC50": 10.30}
{"BINDER": "42Y073-86F08-47 (antibody, V domains shown, Fully human antibody) VH: QVQLVQSGAEVKKPGSSVKVSCKASGGTFSQYAIHWVRQAPGQGLEWMGVIIPIFGKANYAQKFQGRVTITADESTSTAYMELSSLRSEDTAVYYCARGAGYYGDKDPMDVWGQGTTVTVSS VL: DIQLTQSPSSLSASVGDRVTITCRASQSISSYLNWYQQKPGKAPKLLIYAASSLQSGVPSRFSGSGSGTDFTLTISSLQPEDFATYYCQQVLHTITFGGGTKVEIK", "pEC50": 10.30}
{"BINDER": "42Y073-86F04-4 (antibody, V domains shown, Fully human antibody) VH: QVQLVQSGAEVKKPGSSVKVSCKASGGTFESEAISWVRQAPGQGLEWMGGIIPIFGRARYAQKFQGRVTITADESTSTAYMELSSLRSEDTAVYYCARLLGESGMDVWGQGTTVTVSS VL: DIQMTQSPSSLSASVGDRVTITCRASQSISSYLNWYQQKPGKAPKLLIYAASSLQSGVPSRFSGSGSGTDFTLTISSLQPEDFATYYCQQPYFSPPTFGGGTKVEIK", "pEC50": 10.40}
{"BINDER": "42Y073-86F04-33 (antibody, V domains shown, Fully human antibody) VH: QVQLVQSGAEVKKPGSSVKVSCKASGGTFSSYAISWVRQAPGQGLEWMGGILPIFGRANYAQKFQGRVTITADESTSTAYMELSSLRSEDTAVYYCARLLGESGMDVWGQGTTVTVSS VL: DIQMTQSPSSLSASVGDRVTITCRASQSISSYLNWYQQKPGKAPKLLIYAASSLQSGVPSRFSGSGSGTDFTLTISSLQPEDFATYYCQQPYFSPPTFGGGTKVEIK", "pEC50": 10.40}
{"BINDER": "42Y073-1A01-103 (antibody, V domains shown, Fully human antibody) VH: QVQLVQSGAEVKKPGASVKVSCKASGYTFTAYQMHWVRQAPGQGLEWMGIINPAGGWTSYAQKFQGRVTMTRDTSTSTVYMELSSLRSEDTAVYYCARETAYYTTKGNWFDPWGQGTLVTVSS VL: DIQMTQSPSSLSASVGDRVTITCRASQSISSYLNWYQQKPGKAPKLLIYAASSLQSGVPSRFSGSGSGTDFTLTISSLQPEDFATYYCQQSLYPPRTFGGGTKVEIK", "pEC50": 10.70}
